Listed here are molecules together with their documented MBC.
- Test system: Listeria monocytogenes
- ASSAY PROTOCOL: Antibacterial activity against Listeria monocytogenes NCTC 7973 assessed as growth inhibition after 24 hrs at 37 degC by iodonitrotetrazolium chloride staining based microdilution broth assay
- Format: functional
- EXPERIMENTAL CONTEXT: NCTC 7973, 24 h
Give the quantity in µM, number only.

- MOLECULE: "O=C1CSC(c2cccc(Cl)c2)N1c1nc(C23CC4CC(CC(C4)C2)C3)cs1 (centres undefined)"
  TARGET DESC: "Listeria monocytogenes"
  MBC / µM: 125
- MOLECULE: "O=C1CSC(c2ccccc2Cl)N1c1nc(C23CC4CC(CC(C4)C2)C3)cs1 (centres undefined)"
  TARGET DESC: "Listeria monocytogenes"
  MBC / µM: 125

**Query** # get_value(readout='MBC', item= O=C1CSC(c2cccc(Cl)c2Cl)N1c1nc(C23CC4CC(CC(C4)C2)C3)cs1 (centres undefined) )
**Result** 125

**Query** Recorded MBC of O=C1CSC(c2c(Cl)cccc2Cl)N1c1nc(C23CC4CC(CC(C4)C2)C3)cs1 (centres undefined) , please.
**Result** 860

---

- System: Bacillus cereus
- ASSAY PROTOCOL: Antibacterial activity against clinical isolates of Bacillus cereus assessed as growth inhibition after 24 hrs at 37 degC by iodonitrotetrazolium chloride staining based microdilution broth assay
- Assay type: functional
RECORDED METRIC: MIC (µM)
Answer format: numeric, µM implied, no suffix.

Please review the entries below; each comes with its answer.
- COMPOUND: "COc1ccc(OC)c(C2SCC(=O)N2c2nc(C34CC5CC(CC(C5)C3)C4)cs2)c1 (stereo not drawn)"
  RECORDED METRIC: "MIC"
  NUMERIC VALUE: 219
- COMPOUND: "O=C1CSC(c2cccc(F)c2)N1c1nc(C23CC4CC(CC(C4)C2)C3)cs1 (stereo not drawn)"
  RECORDED METRIC: "MIC"
  NUMERIC VALUE: 300

**Query** Item: `CN[C@@H]1[C@H](O[C@H]2[C@H](O[C@H]3[C@H](O)[C@@H](O)[C@H](N=C(N)N)[C@@H](O)[C@@H]3N=C(N)N)O[C@@H](C)[C@]2(O)C=O)O[C@@H](CO)[C@H](O)[C@H]1O` Test system: Bacillus cereus Read-out: MIC Value: ?
**Result** 43

---

In this section, each of the compounds is paired with its reported MBC.
- Test system: Listeria monocytogenes
- ASSAY PROTOCOL: Antibacterial activity against Listeria monocytogenes NCTC 7973 assessed as growth inhibition after 24 hrs at 37 degC by iodonitrotetrazolium chloride staining based microdilution broth assay
- Type: functional
- EXPERIMENTAL CONTEXT: NCTC 7973, 24 h
Dear colleague, please return just the value in µM, with no unit written.

Recorded results for 5 compounds are shown here.
- COMPOUND: "O=C1CSC(c2ccc(Br)cc2)N1c1nc(C23CC4CC(CC(C4)C2)C3)cs1 (stereo not drawn)"
  MBC [µM]: 630
- COMPOUND: "O=C1CSC(c2ccc([N+](=O)[O-])cc2)N1c1nc(C23CC4CC(CC(C4)C2)C3)cs1 (stereo not drawn)"
  MBC [µM]: 125
- COMPOUND: "COc1ccc(OC)c(C2SCC(=O)N2c2nc(C34CC5CC(CC(C5)C3)C4)cs2)c1 (stereo not drawn)"
  MBC [µM]: 657
- COMPOUND: "CN[C@@H]1[C@H](O[C@H]2[C@H](O[C@H]3[C@H](O)[C@@H](O)[C@H](N=C(N)N)[C@@H](O)[C@@H]3N=C(N)N)O[C@@H](C)[C@]2(O)C=O)O[C@@H](CO)[C@H](O)[C@H]1O"
  MBC [µM]: 516
- COMPOUND: "COc1ccc(C2SCC(=O)N2c2nc(C34CC5CC(CC(C5)C3)C4)cs2)cc1 (stereo not drawn)"
  MBC [µM]: 125

**Query** Which MBC is reported with Listeria monocytogenes for this entry: `CC1(C)S[C@@H]2[C@H](NC(=O)[C@H](N)c3ccccc3)C(=O)N2[C@H]1C(=O)O` ?
**Result** 744

**Query** Give the reported MBC for O=C1CSC(c2cccc(F)c2)N1c1nc(C23CC4CC(CC(C4)C2)C3)cs1 (stereo not drawn) (system: Listeria monocytogenes).
**Result** 125

**Query** Lab request: please report MBC under test system Listeria monocytogenes for O=C1CSC(c2ccc(Cl)cc2)N1c1nc(C23CC4CC(CC(C4)C2)C3)cs1 (stereo not drawn)
**Result** 125

---

- System: Candida albicans
- ASSAY PROTOCOL: Antifungal activity against Candida albicans ATCC 10231 assessed as growth inhibition after 72 hrs at 28 degC by serial dilution method
- Type: functional
Each record here notes measured MFC99.5.
Enter your answer as a number in ×10⁻² umol/ml; do not include the unit.

- COMPOUND: "O=C1CSC(c2cccc(Cl)c2Cl)N1c1nc(C23CC4CC(CC(C4)C2)C3)cs1 (stereo not drawn)"
  MFC99.5 / ×10⁻² umol/ml: 1.075
- COMPOUND: "COc1ccc(C2SCC(=O)N2c2nc(C34CC5CC(CC(C5)C3)C4)cs2)cc1 (stereo not drawn)"
  MFC99.5 / ×10⁻² umol/ml: 2.34

**Query** Sample O=C1CSC(c2cccc(F)c2)N1c1nc(C23CC4CC(CC(C4)C2)C3)cs1 (stereo not drawn) — what was its MFC99.5?
**Result** 0.14

---

Listing of recorded MIC by entry.
- Test system: Bacillus cereus
- ASSAY PROTOCOL: Antibacterial activity against clinical isolates of Bacillus cereus assessed as growth inhibition after 24 hrs at 37 degC by iodonitrotetrazolium chloride staining based microdilution broth assay
- Format: functional
In your response, put the unit directly after the numeric value.

- COMPOUND: "O=C1CSC(c2ccc(Br)cc2)N1c1nc(C23CC4CC(CC(C4)C2)C3)cs1 (centres undefined)"
  TARGET DESC: "Bacillus cereus"
  MIC: "105 µM"
- COMPOUND: "O=C1CSC(c2ccc([N+](=O)[O-])cc2)N1c1nc(C23CC4CC(CC(C4)C2)C3)cs1 (centres undefined)"
  TARGET DESC: "Bacillus cereus"
  MIC: "16.2 µM"
- COMPOUND: "O=C1CSC(c2cccc(Cl)c2Cl)N1c1nc(C23CC4CC(CC(C4)C2)C3)cs1 (centres undefined)"
  TARGET DESC: "Bacillus cereus"
  MIC: "30.6 µM"
- COMPOUND: "O=C1CSC(c2c(Cl)cccc2Cl)N1c1nc(C23CC4CC(CC(C4)C2)C3)cs1 (centres undefined)"
  TARGET DESC: "Bacillus cereus"
  MIC: "430 µM"
- COMPOUND: "CC1(C)S[C@@H]2[C@H](NC(=O)[C@H](N)c3ccccc3)C(=O)N2[C@H]1C(=O)O"
  TARGET DESC: "Bacillus cereus"
  MIC: "248 µM"
- COMPOUND: "O=C1CSC(c2cccc(Cl)c2)N1c1nc(C23CC4CC(CC(C4)C2)C3)cs1 (centres undefined)"
  TARGET DESC: "Bacillus cereus"
  MIC: "16.2 µM"
- COMPOUND: "O=C1CSC(c2ccccc2Cl)N1c1nc(C23CC4CC(CC(C4)C2)C3)cs1 (centres undefined)"
  TARGET DESC: "Bacillus cereus"
  MIC: "30.6 µM"
- COMPOUND: "O=C1CSC(c2ccc(Cl)cc2)N1c1nc(C23CC4CC(CC(C4)C2)C3)cs1 (centres undefined)"
  TARGET DESC: "Bacillus cereus"
  MIC: "16.2 µM"

Lab note: next compound to report on.
**Query** Fill in the blank: the reported MIC of COc1ccc(C2SCC(=O)N2c2nc(C34CC5CC(CC(C5)C3)C4)cs2)cc1 (centres undefined) is ____.
**Result** 16.3 µM

---

MBC values for the compounds below.
- Tested on: Escherichia coli
- ASSAY PROTOCOL: Antibacterial activity against Escherichia coli ATCC 35210 assessed as growth inhibition after 24 hrs at 37 degC by iodonitrotetrazolium chloride staining based microdilution broth assay
- Format: functional
- EXPERIMENTAL CONTEXT: ATCC 35210, 24 h
Please state the number and follow it with the unit.

**Query** Bench note: what MBC did COc1ccc(C2SCC(=O)N2c2nc(C34CC5CC(CC(C5)C3)C4)cs2)cc1 (centres undefined) show?
**Result** 125 µM

**Query** Returns the measured MBC for the input compound. Input: O=C1CSC(c2cccc(Cl)c2Cl)N1c1nc(C23CC4CC(CC(C4)C2)C3)cs1 (centres undefined)
**Result** 125 µM

**Query** // MBC lookup, key: O=C1CSC(c2c(Cl)cccc2Cl)N1c1nc(C23CC4CC(CC(C4)C2)C3)cs1 (centres undefined)
**Result** 430 µM

**Query** Return reported MBC; argument: COc1ccc(OC)c(C2SCC(=O)N2c2nc(C34CC5CC(CC(C5)C3)C4)cs2)c1 (centres undefined)
**Result** 438 µM
